- System: recombinant human TFPI (tissue factor pathway inhibitor) (human, UniProt P10646 29-304)
- Assay name: cell-based or functional assay
Test readout: % of Normalized, TF/FVIIa/FX complex assay, Ab 25 nM (%)
Answer with a number only, understood to be in %.

Would you please look over these solved cases?
- clone 1023 (antibody, V domains shown, scFv on yeast at selection; human IgG4/kappa IgG as purified) VH: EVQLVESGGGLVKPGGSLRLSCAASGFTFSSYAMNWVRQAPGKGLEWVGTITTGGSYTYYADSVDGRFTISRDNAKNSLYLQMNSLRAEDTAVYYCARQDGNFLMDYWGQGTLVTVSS VL: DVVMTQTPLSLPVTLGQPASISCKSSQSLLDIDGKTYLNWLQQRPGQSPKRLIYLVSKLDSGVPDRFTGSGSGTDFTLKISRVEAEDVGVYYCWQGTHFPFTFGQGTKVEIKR: 43.7
- clone 13 (antibody, V domains shown) VH: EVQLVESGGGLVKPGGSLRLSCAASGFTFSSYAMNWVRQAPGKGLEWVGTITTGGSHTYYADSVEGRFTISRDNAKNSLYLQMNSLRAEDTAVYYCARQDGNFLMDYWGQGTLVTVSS VL: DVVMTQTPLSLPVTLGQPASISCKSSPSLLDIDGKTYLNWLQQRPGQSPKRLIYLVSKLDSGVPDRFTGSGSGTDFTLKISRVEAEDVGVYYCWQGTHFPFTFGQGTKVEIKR: 62.2
- clone 1202 (antibody, V domains shown, scFv on yeast at selection; human IgG4/kappa IgG as purified; also called No. 1202 antibody) VH: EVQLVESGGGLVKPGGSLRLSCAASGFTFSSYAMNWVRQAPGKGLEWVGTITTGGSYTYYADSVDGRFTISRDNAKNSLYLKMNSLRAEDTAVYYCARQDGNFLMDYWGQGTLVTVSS VL: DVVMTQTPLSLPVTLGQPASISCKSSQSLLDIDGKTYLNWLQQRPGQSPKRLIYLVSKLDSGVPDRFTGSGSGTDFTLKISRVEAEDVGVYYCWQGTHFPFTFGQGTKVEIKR: 60

Kindly consider the entry below.
Query: % of Normalized, TF/FVIIa/FX complex assay, Ab 25 nM; subject: clone 12 (antibody, V domains shown, human IgG4/kappa IgG as purified; also called No. 12 antibody) VH: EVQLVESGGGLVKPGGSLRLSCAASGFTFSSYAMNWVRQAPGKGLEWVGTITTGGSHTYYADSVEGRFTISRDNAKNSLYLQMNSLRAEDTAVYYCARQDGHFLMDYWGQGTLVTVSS VL: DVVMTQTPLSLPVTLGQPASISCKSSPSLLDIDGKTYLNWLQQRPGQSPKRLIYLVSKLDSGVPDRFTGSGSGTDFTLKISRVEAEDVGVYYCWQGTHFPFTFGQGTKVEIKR
57.7
